Assay method text: Pharmacokinetic analysis of GR3027 in plasma after i.v. and p.o. administration
Format: in vivo, rat
Cond: male, Sprague-Dawley, iv; 2 mg/kg i.v., rat plasma, mean; read-out: t½

>  <Smiles data>
C#C[C@]1(O)CC[C@@]2(C)[C@@H](CC[C@@H]3[C@@H]2CC[C@]2(C)/C(=N/O)CC[C@@H]32)C1

>  <half-life / min>
677

$$$$

---

Assay method text: Pharmacokinetic analysis of GR3027 in plasma after i.v. and p.o. administration
Assay type: in vivo, rat
Cond: male, Sprague-Dawley, iv; 2 mg/kg i.v., rat plasma, mean

>  <Smiles data>
C#C[C@]1(O)CC[C@@]2(C)[C@@H](CC[C@@H]3[C@@H]2CC[C@]2(C)/C(=N/O)CC[C@@H]32)C1

>  <Tmax, min>
5

$$$$

From: paper PMC10604444
